The reader will find reported PEPT1 Residual uptake % IGly-Gln values listed item by item below.
Biological target: PEPT1 (Homo sapiens, UniProt P46059)
Construct: expressed in transfected cells; host or cells: transgenic yeast cells
Sequence (P46059 1-708): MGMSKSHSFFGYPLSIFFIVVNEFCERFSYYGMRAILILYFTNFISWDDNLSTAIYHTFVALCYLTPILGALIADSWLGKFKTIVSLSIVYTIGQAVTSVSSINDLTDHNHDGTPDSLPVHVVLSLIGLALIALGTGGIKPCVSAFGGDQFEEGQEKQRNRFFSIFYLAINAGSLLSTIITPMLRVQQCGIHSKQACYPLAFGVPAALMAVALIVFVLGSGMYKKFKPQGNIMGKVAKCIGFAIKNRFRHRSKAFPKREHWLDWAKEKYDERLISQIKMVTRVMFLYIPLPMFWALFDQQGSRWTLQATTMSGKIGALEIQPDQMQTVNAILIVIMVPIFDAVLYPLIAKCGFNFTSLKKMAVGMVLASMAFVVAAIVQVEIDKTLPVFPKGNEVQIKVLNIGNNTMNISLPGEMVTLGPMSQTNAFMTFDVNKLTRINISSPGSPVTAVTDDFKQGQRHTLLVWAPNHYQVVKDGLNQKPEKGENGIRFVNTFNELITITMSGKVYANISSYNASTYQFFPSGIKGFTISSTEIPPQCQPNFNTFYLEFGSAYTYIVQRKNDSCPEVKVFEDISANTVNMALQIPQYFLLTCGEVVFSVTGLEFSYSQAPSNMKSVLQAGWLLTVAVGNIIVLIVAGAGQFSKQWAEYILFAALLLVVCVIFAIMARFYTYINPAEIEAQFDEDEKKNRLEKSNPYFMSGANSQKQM
Test: Electrophysiological analysis of transport currents in Xenopus oocytes expressing PEPT1
Assay type: cell-based, mammalian
Conditions: transport current in Xenopus oocytes relative to 5 mM Gly-Gln
Square brackets hold non-standard residues; d marks the D form. Peptide text beside a SMILES is read from it. pY = N[C@@H](Cc1ccc(OP(=O)(O)O)cc1)C(=O)O; pS = N[C@@H](COP(=O)(O)O)C(=O)O; Cha = N[C@@H](CC1CCCCC1)C(=O)O; Tle = CC(C)(C)[C@H](N)C(=O)O
Give the number; % IGly-Gln is assumed, so skip it.

I would be grateful if you could share the reported PEPT1 Residual uptake % IGly-Gln for CC[C@@H](C)[C@@H](NC(=O)[C@@H]1CCCN1C(=O)[C@@H](N)C(C)(C)C)C(=O)O [t-butyl-Gly-Pro-D-Ile] (H-[Tle]-Pro-[dI]-OH; N-terminus and C-terminus assumed) . 0

Reported PEPT1 Residual uptake % IGly-Gln, compound CC[C@H](C)[C@H](NC(=O)[C@@H]1CCCN1C(=O)[C@@H](N)CC1CCCCC1)C(=O)O [Cha-Pro-Ile] (H-[Cha]-Pro-Ile-OH; N-terminus and C-terminus assumed) : ____ 90

Find the recorded PEPT1 Residual uptake % IGly-Gln belonging to CC(C)[C@@H](NC(=O)[C@@H]1CCCN1C(=O)[C@@H](N)C(C)(C)C)C(=O)O [t-butyl-Gly-Pro-D-Val] (H-[Tle]-Pro-[dV]-OH; N-terminus and C-terminus assumed) and report it. 0

I have this compound here, CC[C@H](C)[C@H](NC(=O)[C@@H]1CCCN1C(=O)[C@@H](N)Cc1ccc(OP(=O)(O)O)cc1)C(=O)O [Tyr(P)-Pro-Ile] (H-[pY]-Pro-Ile-OH; N-terminus and C-terminus assumed) , and I need its recorded PEPT1 Residual uptake % IGly-Gln. 0

Any idea what PEPT1 Residual uptake % IGly-Gln was measured for CC[C@H](C)[C@H](NC(=O)[C@@H]1CCCN1C(=O)[C@@H](N)COP(=O)(O)O)C(=O)O [Ser(P)-Pro-Ile] (H-[pS]-Pro-Ile-OH; N-terminus and C-terminus assumed) ? 0

====

molecular target: PEPT1 (Homo sapiens); construct: expressed in transfected cells; host or cells: transgenic yeast cells; assay: Competition assay with transgenic yeast cells, displacement of radiolabeled tracer dipeptide, PEPT1; type: binding, mammalian
Square brackets hold non-standard residues; d marks the D form. Peptide text beside a SMILES is read from it. pY = N[C@@H](Cc1ccc(OP(=O)(O)O)cc1)C(=O)O
measured-attribute: pEC50
Kindly note that pEC50 refers to -log10 of the concentration in mol/L and answer with the value alone.

What does the record list as pEC50 for CC[C@H](C)[C@H](NC(=O)[C@@H]1CCCN1C(=O)[C@@H](N)Cc1ccc(OP(=O)(O)O)cc1)C(=O)O [Tyr(P)-Pro-Ile] (H-[pY]-Pro-Ile-OH; N-terminus and C-terminus assumed) ? 3.04

====

Target: PEPT2 (Homo sapiens)
Construct: expressed in transfected cells; host or cells: transgenic yeast cells
Sequence (Q16348 1-729): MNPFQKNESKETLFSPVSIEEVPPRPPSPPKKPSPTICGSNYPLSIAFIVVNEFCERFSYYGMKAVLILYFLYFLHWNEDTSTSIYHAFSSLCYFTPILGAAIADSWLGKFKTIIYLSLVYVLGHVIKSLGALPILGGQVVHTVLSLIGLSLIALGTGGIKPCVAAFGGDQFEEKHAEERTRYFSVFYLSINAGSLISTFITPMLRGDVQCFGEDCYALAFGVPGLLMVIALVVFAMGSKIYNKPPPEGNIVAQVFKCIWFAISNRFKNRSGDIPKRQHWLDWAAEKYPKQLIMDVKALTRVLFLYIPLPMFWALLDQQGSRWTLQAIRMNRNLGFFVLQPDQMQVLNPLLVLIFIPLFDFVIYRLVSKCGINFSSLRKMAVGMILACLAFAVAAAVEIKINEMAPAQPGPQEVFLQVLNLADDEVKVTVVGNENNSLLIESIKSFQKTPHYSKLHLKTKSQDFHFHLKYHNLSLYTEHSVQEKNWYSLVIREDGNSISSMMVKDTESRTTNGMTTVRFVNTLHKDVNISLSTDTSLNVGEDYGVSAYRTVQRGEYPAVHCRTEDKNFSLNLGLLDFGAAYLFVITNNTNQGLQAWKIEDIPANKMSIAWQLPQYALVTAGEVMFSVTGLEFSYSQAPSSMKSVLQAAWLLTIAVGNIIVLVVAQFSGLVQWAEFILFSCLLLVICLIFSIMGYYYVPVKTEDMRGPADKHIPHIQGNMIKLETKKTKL
Test: Electrophysiological analysis of transport currents in Xenopus oocytes expressing PEPT2
Format: cell-based, mammalian
Details: transport current in Xenopus oocytes relative to 5 mM Gly-Gln
Square brackets hold non-standard residues; d marks the D form. Peptide text beside a SMILES is read from it. pY = N[C@@H](Cc1ccc(OP(=O)(O)O)cc1)C(=O)O; pS = N[C@@H](COP(=O)(O)O)C(=O)O; Cha = N[C@@H](CC1CCCCC1)C(=O)O; Tle = CC(C)(C)[C@H](N)C(=O)O
measured-attribute: PEPT2 Residual uptake % IGly-Gln (% IGly-Gln)
Return type: number; implicit unit % IGly-Gln.

Consider the reported PEPT2 Residual uptake % IGly-Gln for these molecules:
molecule	reported
CC[C@H](C)[C@H](NC(=O)[C@@H]1CCCN1C(=O)[C@@H](N)COP(=O)(O)O)C(=O)O [Ser(P)-Pro-Ile] (H-[pS]-Pro-Ile-OH; N-terminus and C-terminus assumed)	0
CC[C@H](C)[C@H](NC(=O)[C@@H]1CCCN1C(=O)[C@@H](N)Cc1ccc(OP(=O)(O)O)cc1)C(=O)O [Tyr(P)-Pro-Ile] (H-[pY]-Pro-Ile-OH; N-terminus and C-terminus assumed)	0
CC[C@H](C)[C@H](NC(=O)[C@@H]1CCCN1C(=O)[C@@H](N)CC1CCCCC1)C(=O)O [Cha-Pro-Ile] (H-[Cha]-Pro-Ile-OH; N-terminus and C-terminus assumed)	100

Which PEPT2 Residual uptake % IGly-Gln is listed for CC[C@@H](C)[C@@H](NC(=O)[C@@H]1CCCN1C(=O)[C@@H](N)C(C)(C)C)C(=O)O [t-butyl-Gly-Pro-D-Ile] (H-[Tle]-Pro-[dI]-OH; N-terminus and C-terminus assumed) ? 0

# PEPT2 Residual uptake % IGly-Gln lookup, item CC(C)[C@@H](NC(=O)[C@@H]1CCCN1C(=O)[C@@H](N)C(C)(C)C)C(=O)O [t-butyl-Gly-Pro-D-Val] (H-[Tle]-Pro-[dV]-OH; N-terminus and C-terminus assumed) 0

====

Entries with their measured Ki, system purified porcine DP IV (Sus scrofa):
Square brackets hold non-standard residues; d marks the D form. Peptide text beside a SMILES is read from it. * marks the point of attachment. Cha = N[C@@H](CC1CCCCC1)C(=O)O; Tle = CC(C)(C)[C@H](N)C(=O)O; Abu = CC[C@H](N)C(=O)O; Bn = c1ccc(C*)cc1
Entry rule: numbers only, all in µM.

Example entries and their recorded answers appear below.
molecule	subject-of-test	unit-annotation	Ki
CC[C@H](C)[C@H](NC(=O)[C@@H]1CCCN1C(=O)[C@@H](N)CC1CCCCC1)C(=O)O [Cha-Pro-Ile] (H-[Cha]-Pro-Ile-OH; N-terminus and C-terminus assumed)	purified porcine DP IV (Sus scrofa)	µM	5.99
CC[C@H](N)C(=O)N1CCC[C@H]1C(=O)N[C@H](C(=O)O)[C@@H](C)CC [Abu-Pro-Ile] (H-[Abu]-Pro-Ile-OH; N-terminus and C-terminus assumed)	purified porcine DP IV (Sus scrofa)	µM	8.75
CC[C@H](C)[C@H](NC(=O)[C@@H]1CCCN1C(=O)[C@@H](N)C(C)(C)C)C(N)=O [t-butyl-Gly-Pro-Ile-NH2, t-butyl-Gly-Pro-Ile-amide] (H-[Tle]-Pro-Ile-NH2; N-terminus assumed)	purified porcine DP IV (Sus scrofa)	µM	5.6
CC[C@H](C)[C@H](NC(=O)[C@@H]1CCCN1C(=O)[C@@H](N)COCc1ccccc1)C(=O)O [Ser(Bzl)-Pro-Ile] (H-Ser(Bn)-Pro-Ile-OH; N-terminus and C-terminus assumed)	purified porcine DP IV (Sus scrofa)	µM	21.6

Okay, now this molecule:
Form field - read-out: Ki; system: purified porcine DP IV (Sus scrofa); submitted item: CC[C@H](C)[C@H](NC(=O)[C@@H]1CCCN1C(=O)[C@@H](N)C(C)(C)C)C(=O)O [t-butyl-Gly-Pro-Ile] (H-[Tle]-Pro-Ile-OH; N-terminus and C-terminus assumed) 3.1
